Values from ChEMBL document CHEMBL1122735

Assay: Compound was evaluated for the acute cytotoxicity chinese hamster lung fibroblast like cells after 2 hr exposure in nitrogen at 22 degree Centigrade
Assay type: cell-based, Cricetulus griseus
parameter: Acute toxicity (mM)
Provide the reading as a plain figure in mM.

Example compounds with recorded Acute toxicity:
CC(=O)Nc1nc(N2CCN(C)CC2)c(Cl)nc1[N+](=O)[O-]    0.16
CC(=O)Nc1nc(NCC(O)CO)c(Cl)nc1[N+](=O)[O-] (centres undefined)    4
O=[N+]([O-])c1nccnc1NCC(O)CO (centres undefined)    0.7

Proceed to the following item.
Q) What measured Acute toxicity goes with COCC(O)Cn1ccnc1[N+](=O)[O-] (centres undefined) [MISONIDAZOLE] ?
A) 30

* * *

Recorded Ratio values for a group of molecules are listed next.
Assay: Sensitizer enhancement ratio was reported at 10E-3 mol/dmE-3 concentration.
The answer should be a number; do not append a unit.

Example molecules with recorded Ratio:
CC(=O)Nc1nc(NC(CO)C(O)CO)c(Cl)nc1[N+](=O)[O-] (stereo not drawn)    1.35
CC(=O)Nc1nc(NCC(O)CO)c(Cl)nc1[N+](=O)[O-] (stereo not drawn)    1.3
Nc1nc(NCCO)c(Cl)nc1[N+](=O)[O-]    1.22

Q) What measured Ratio goes with O=[N+]([O-])c1nccnc1NCC(O)CO (stereo not drawn) ?
A) 1.71

Q) What measured Ratio goes with O=[N+]([O-])c1cnc(NC(CO)C(O)CO)cn1 (stereo not drawn) ?
A) 1.1

Q) What measured Ratio goes with Nc1nc(NCC(O)CO)c(Cl)nc1[N+](=O)[O-] (stereo not drawn) ?
A) 1.25

Q) What measured Ratio goes with `CC(=O)Nc1nc(N2CCN(C)CC2)c(Cl)nc1[N+](=O)[O-]` ?
A) 1.5

Q) What measured Ratio goes with COC(=O)c1nc(NCC(O)CO)cnc1[N+](=O)[O-] (stereo not drawn) ?
A) 1.3

* * *

Experiment: Partition coefficient which was measured in octanol-buffer system at pH 7, 22 degree Centigrade
Type: physicochemical
Settings: octanol/water
parameter: Partition coefficient
The answer should be a number; do not append a unit.

CC(=O)Nc1nc(NCC(O)CO)c(Cl)nc1[N+](=O)[O-] (centres undefined)    1.01
Nc1nc(NCCO)c(Cl)nc1[N+](=O)[O-]    1.32

Q) What measured Partition coefficient goes with O=[N+]([O-])c1nccnc1NCC(O)CO (centres undefined) ?
A) 0.32

Q) What measured Partition coefficient goes with `CC(=O)Nc1nc(N2CCN(C)CC2)c(Cl)nc1[N+](=O)[O-]` ?
A) 3.18

Q) What measured Partition coefficient goes with COC(=O)c1nc(NCC(O)CO)cnc1[N+](=O)[O-] (centres undefined) ?
A) 0.79

Q) What measured Partition coefficient goes with O=[N+]([O-])c1cnc(NC(CO)C(O)CO)cn1 (centres undefined) ?
A) 0.13

Q) What measured Partition coefficient goes with Nc1nc(NCC(O)CO)c(Cl)nc1[N+](=O)[O-] (centres undefined) ?
A) 0.6

Q) What measured Partition coefficient goes with CC(=O)Nc1nc(NC(CO)C(O)CO)c(Cl)nc1[N+](=O)[O-] (centres undefined) ?
A) 0.22

Q) What measured Partition coefficient goes with COCC(O)Cn1ccnc1[N+](=O)[O-] (centres undefined) [MISONIDAZOLE] ?
A) 0.48

* * *

Assay: Compound was evaluated for the chronic aerobic cytotoxicity in chinese hamster lung fibroblast like cells after 7 days exposure in air at 37 degree Centigrade
Format: cell-based, Cricetulus griseus
Settings: 168 h
Recorded Cytotoxicity values for a group of molecules are listed next.
Provide the reading as a plain figure in µM.

O=[N+]([O-])c1nccnc1NCC(O)CO (stereo not drawn)    27

Proceed to the following item.
Q) What measured Cytotoxicity goes with `CC(=O)Nc1nc(N2CCN(C)CC2)c(Cl)nc1[N+](=O)[O-]` ?
A) 25
